# TARGET ENTITY: sIL-6R (soluble IL-6 receptor alpha) (human, UniProt P08887 20-355)
# Sequence (P08887 20-355): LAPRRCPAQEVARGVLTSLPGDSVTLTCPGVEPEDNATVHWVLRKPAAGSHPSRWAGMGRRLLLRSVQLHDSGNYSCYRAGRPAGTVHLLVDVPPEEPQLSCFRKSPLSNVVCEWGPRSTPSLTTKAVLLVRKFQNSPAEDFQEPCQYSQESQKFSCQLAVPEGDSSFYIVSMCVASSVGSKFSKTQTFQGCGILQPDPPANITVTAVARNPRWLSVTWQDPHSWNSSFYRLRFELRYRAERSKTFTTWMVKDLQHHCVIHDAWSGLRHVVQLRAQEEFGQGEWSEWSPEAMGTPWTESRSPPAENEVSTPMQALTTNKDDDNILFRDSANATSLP
# TEST DETAILS: pull-down, real-time PCR; smaller Kd than CIL-6A; value only in figure; 1x PBSMT pH 7.2: 137 mM NaCl, 2.68 mM KCl, 8.1 mM Na2HPO4, 1.76 mM KH2PO4, 1 mM MgCl2, 0.025% Tween-20; pull-down 1 h (room temperature in SELEX); MST at 25 C
# MEASUREMENT CONTEXT: protein: commercial; circular; two putative antiparallel G4 motifs
MEASUREMENT NAME: Kd

CIL-6A6-1 (structured_DNA, circular) DNA: ATCTCGACTAGTCAGTGGTGGATATGGGGAGGCTGTGGTGAGGGTATGGTTGTCTCGGATTGGTTGTCTCGGAT :: < 6.9 nM
